Reported pEC50 by item:
- experimental.system: T1, human Glypican 3 (GPC3) on GPC3-positive cells (human, UniProt P51654 25-554)
- T1 construct: whole, on cells; the methods say only 'GPC3-positive cells'; also called hGPC3
- T1 sequence (P51654 25-554 limits assumed): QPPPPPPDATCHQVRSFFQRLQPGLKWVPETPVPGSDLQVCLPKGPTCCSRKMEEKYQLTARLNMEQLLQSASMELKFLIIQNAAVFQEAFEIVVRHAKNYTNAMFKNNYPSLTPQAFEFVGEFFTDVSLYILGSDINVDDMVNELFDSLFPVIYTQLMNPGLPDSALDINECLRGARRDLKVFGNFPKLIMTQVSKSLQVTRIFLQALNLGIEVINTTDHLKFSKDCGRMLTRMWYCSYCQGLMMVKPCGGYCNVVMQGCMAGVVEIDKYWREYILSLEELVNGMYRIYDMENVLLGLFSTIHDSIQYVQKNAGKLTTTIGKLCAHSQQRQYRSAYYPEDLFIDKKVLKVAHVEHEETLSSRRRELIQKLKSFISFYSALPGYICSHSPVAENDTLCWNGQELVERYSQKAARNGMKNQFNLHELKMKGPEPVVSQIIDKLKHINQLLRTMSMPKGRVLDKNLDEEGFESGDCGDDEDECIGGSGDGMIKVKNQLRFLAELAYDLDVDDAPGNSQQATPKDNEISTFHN
- protocol.notes: competition with AlexaFluor-488 labeled mGPC3-1 on GPC3-positive cells, flow cytometry
Reminder that pEC50 means the negative base-10 logarithm of the concentration expressed in mol/L.

# binder, value.measured
rows = [
    ("hGPC3-1 HALC (antibody, V domains shown, Kabat positions) VH: QVQLVQSGAEVKKPGASVKVSCKASGYTFTDYEMHWVRQAPGQGLEWIGGIDPETGGTAYNQKFKGRATLTADTSTSTAYMELRSLRSDDTAVYYCARYYSFAYWGQGTLVTVSS VL: DVVMTQSPLSLPVTLGQPASISCRSSQSIVHSNGNTYLQWFQQRPGQSPKLLIYKVSNRFSGVPDRFSGSGSGTDFTLKISRVEAEDVGVYYCFQVSHVPYTFGQGTKLVMK", 7.20),
    ("murine GPC3-1 antibody (antibody, V domains shown, Murine hybridoma IgG; also called mGPC3-1) VH: QVQLQQSGAELVRPGASVTLSCKASGYTFTDYEMHWVKQTPVHGLEWIGGIDPETGGTAYNQKFKGKATLTADKSSSTAYMDLRSLTSEDSAVYYCGRYYSFAYWGQGTLVTVSA VL: DVLMTQTPLSLPLSLGDQASISCRSSQSIVHSNGNTYLQWFLQKPGQSPKLLIYKVSNRFSGVPDRFSGSGSGTDFTLKIGRVEAEDLGVYYCFQVSHVPYTFGGGTKLVMK", 8.05),
]

Look up pEC50 for this binder: hGPC3-1 HBLB (antibody, V domains shown, Kabat position) VH: EVQLVQSGAEVKKPGATVKISCKVSGYTFTDYEMHWVQQAPGKGLEWMGGIDPETGGTAYNQKFKGRVTLTADKSTDTAYMELSSLRSEDTAVYYCGRYYSFAYWGQGTLVTVSS VL: DVVMTQSPLSLPVTLGQPASISCRSSQSIVHSNGNTYLQWFQQRPGQSPRLLIYKVSNRFSGVPDRFSGSGSGTDFTLKISRVEAEDVGVYYCFQVSHVPYTFGQGTKLEIK
7.85

Look up pEC50 for this binder: hGPC3-1 HDLA (antibody, V domains shown, Kabat positions) VH: EVQLVQSGAEVKKPGATVKISCKASGYTFTDYEMHWVKQAPGKGLEWIGGIDPETGGTAYNQKFKGKATLTADKSTDTAYMELSSLRSEDTAVYYCGRYYSFAYWGQGTLVTVSS VL: DVVMTQSPLSLPVTLGQPASISCRSSQSIVHSNGNTYLQWFQQRPGQSPRRLIYKVSNRFSGVPDRFSGSGSGTDFTLKISRVEAEDVGVYYCFQVSHVPYTFGQGTKLEIK
6.83

Look up pEC50 for this binder: hGPC3-1 HCLA (antibody, V domains shown, Kabat positions) VH: EVQLVQSGAEVKKPGATVKISCKASGYTFTDYEMHWVQQAPGKGLEWIGGIDPETGGTAYNQKFKGRATLTADKSTDTAYMELSSLRSEDTAVYYCGRYYSFAYWGQGTLVTVSS VL: DVVMTQSPLSLPVTLGQPASISCRSSQSIVHSNGNTYLQWFQQRPGQSPRRLIYKVSNRFSGVPDRFSGSGSGTDFTLKISRVEAEDVGVYYCFQVSHVPYTFGQGTKLEIK
7.12
